The reported measurements were obtained from patent US20250171451A1.

Target: recombinant GST-TEAD1 proteins (209 to 426 a.a.) (Homo sapiens)
Construct: recombinant GST-TEAD1 proteins (209 to 426 a.a.)
Sequence (P28347 209-426): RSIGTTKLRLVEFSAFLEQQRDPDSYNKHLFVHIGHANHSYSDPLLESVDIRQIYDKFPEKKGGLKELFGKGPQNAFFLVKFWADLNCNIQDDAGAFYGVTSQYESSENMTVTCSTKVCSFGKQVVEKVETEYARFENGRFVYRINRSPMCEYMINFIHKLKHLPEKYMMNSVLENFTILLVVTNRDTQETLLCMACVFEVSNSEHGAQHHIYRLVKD
Experiment: Evaluation of palmitoylation of TEAD protein
Assay type: biochemical
Details: 5 μM compound, 15 minutes preincubation, 3 μM alkyne palmitoyl-CoA 30 minutes, pH 6.4, vs DMSO control
assay-metric: inhibition at 5 µM

# get_value(readout='inhibition at 5 µM', item= C=CC(=O)Nc1cnc2c(c1)c(C)nn2-c1ccc(C(C)C)cc1 )
> 80%

Quick one: inhibition at 5 µM of C=CC(=O)Nc1cnc2c(c1)c(C)cn2Cc1ccc(OC(F)(F)F)cc1 ?
40 to 80%

Recorded inhibition at 5 µM of C=CC(=O)Nc1ccc2c(c1)CCN2c1ccc(C(F)(F)F)cc1 , please.
40 to 80%

Could you tell me which inhibition at 5 µM is on file for C=CC(=O)Nc1cc2ccn(Cc3ccc(C(F)(F)F)cc3)c2cn1 ?
40 to 80%
